tested.on: human LPA1 (Homo sapiens)
Construct: expressed in transfected cells; host or cells: CHO-K1
experimental.details: In vitro LPA1 calcium flux antagonist assay - Bioduro protocol
Assay type: cell-based
study.conditions: Table B3; CHO-K1 cells overexpressing human LPA1 and G15a, LPA challenge at EC80; read-out: Activity (IC50 class)
pIC50: −log10 of the molar value.
test.readout: pIC50

Solved cases below.
{"compound": "COc1cc(-c2ccc(NC3(C(=O)O)CCCC3)cc2COC2Cc3ccccc3C2)cc(OC)c1C", "test.readout": "pIC50", "result": "6.00 to 7.00"}
{"compound": "COc1cc(-c2ccc(NC3(C(=O)O)CN(C(C)=O)C3)cc2COC2Cc3ccccc3C2)cc(OC)c1C", "test.readout": "pIC50", "result": "> 7.00"}
{"compound": "COc1cc(OC)nc(-c2c(C)cc(NC3(C(=O)O)CCOCC3)cc2COC2CCCC2)n1", "test.readout": "pIC50", "result": "< 6.00"}
{"compound": "CCOc1ccnc(-c2ccc(NC3(C(=O)O)CCOCC3)cc2COC2CC2)c1C(F)F", "test.readout": "pIC50", "result": "6.00 to 7.00"}
{"compound": "COc1cc(-c2ccc(OC3(C(=O)O)CCOCC3)cc2CO[C@@H]2CCOC2)c(F)c(OC)c1C", "test.readout": "pIC50", "result": "< 6.00"}
{"compound": "CCOC1CC(Nc2ccc(-c3cc(OC)c(C)c(OC)c3C)c(COC3CCCC3)c2)(C(=O)O)C1 (stereo not shown) [Compound 214]", "test.readout": "pIC50", "result": "> 7.00"}
{"compound": "COc1cc(-c2ccc(NC3(C(=O)O)CCN(C(C)=O)CC3)cc2COC2CCCC2)cc(OC)c1C", "test.readout": "pIC50", "result": "6.00 to 7.00"}
{"compound": "CCOC(=O)N1CCC(Nc2cc(C)c(-c3cc(OC)cc(OC)c3)c(COC3CCCC3)c2)(C(=O)O)CC1", "test.readout": "pIC50", "result": "6.00 to 7.00"}
{"compound": "COc1cc(OC)cc(-c2ccc(OCCC(=O)O)cc2COC2Cc3ccccc3C2)c1", "test.readout": "pIC50", "result": "6.00 to 7.00"}
{"compound": "CCCOc1cccc(-c2ccc(NC3(C(=O)O)CCOCC3)cc2COC2CCCC2)c1F", "test.readout": "pIC50", "result": "> 7.00"}

The record that follows has no pIC50 shown yet.
## Task Which pIC50 value belongs to COC(=O)N1CCC(Nc2cc(C)c(-c3cc(OC)ccn3)c(COC3CCCC3)c2)(C(=O)O)CC1 ?
## Result < 6.00

---

tested.on: human LPA1 (Homo sapiens, UniProt Q92633)
Construct: expressed in transfected cells; host or cells: CHO-K1
Sequence (Q92633 whole entry): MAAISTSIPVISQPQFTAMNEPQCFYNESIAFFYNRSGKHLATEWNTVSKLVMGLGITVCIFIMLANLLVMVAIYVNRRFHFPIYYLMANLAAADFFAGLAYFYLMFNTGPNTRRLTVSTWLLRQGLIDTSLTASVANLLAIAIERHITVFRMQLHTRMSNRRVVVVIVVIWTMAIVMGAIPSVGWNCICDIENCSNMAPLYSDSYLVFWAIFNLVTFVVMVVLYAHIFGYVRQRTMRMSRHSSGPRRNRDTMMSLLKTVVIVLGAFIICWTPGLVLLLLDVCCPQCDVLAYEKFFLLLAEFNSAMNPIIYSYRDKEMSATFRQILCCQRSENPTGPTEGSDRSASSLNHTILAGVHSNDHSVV
experimental.details: In vitro LPA1 calcium flux antagonist assay - Bioduro protocol
Type: cell-based
study.conditions: CHO-K1 cells overexpressing human LPA1 and G15a; LPA challenge at EC80; calcium mobilization on FLIPR Tetra; read-out: IC50
pIC50: −log10 of the molar value.
test.readout: pIC50

Example cases with answers are listed next.
{"molecule": "COc1cc(-c2ccc(NC3(C(=O)O)CCOCC3)cc2COCC2CC2)c(F)c(OC)c1C [Compound 364]", "pIC50": 7.08}
{"molecule": "COc1cc(-c2ccc(NC3(C(=O)O)CCC(OC)CC3)cc2COC2CCCC2)cc(OC)c1C (stereo not shown) [Compound 205]", "pIC50": 5.90}
{"molecule": "COc1cc(-c2ccc(OC3(C(=O)O)CCOCC3)cc2COC2CC2)c(Cl)c(OC)c1C [Compound 365]", "pIC50": 7.73}
{"molecule": "COc1cc(-c2c(C)cc(OC3(C(=O)O)CCOCC3)cc2COC2CCCC2)cc(OC)c1C [Compound 163]", "pIC50": 6.42}

I = CCOc1cc(OC)cc(-c2ccc(NC3(C(=O)O)CCC(F)(F)CC3)cc2COC2CC2)c1F [Compound 388]
II = COc1cc(OC)c(C(F)F)c(-c2ccc(NC3(C(=O)O)CCOCC3)cc2COC2CC2)c1 [Compound 302]
## Task Pick one: I or II . Which has the bigger pIC50 number? Select an item and report its label.
## Result I

1 = COc1cc(-c2ccc(NC3(C(=O)O)CN(C(C)=O)C3)cc2COC2Cc3ccccc3C2)cc(OC)c1C [Compound 128]
2 = O=C(O)C1(Nc2ccc(-c3cccc(OC4CC4)c3)c(COC3CC3)c2)CCOCC1 [Compound 304]
3 = COc1cc(-c2ccc(NC3(C(=O)O)CCOCC3)cc2COC2Cc3ccccc3C2)cc(OC)c1C [Compound 111]
4 = COc1c(C(C)OC)ccc(-c2ccc(NC3(C(=O)O)CCOCC3)cc2COC2CCCC2)c1C (single isomer, unassigned) [Compound 241]
5 = COc1cc(-c2ccc(NC3(C(=O)O)CCOCC3)cc2COCC2(C#N)CC2)cc(OC)c1C [Compound 151]
## Task Which order do these items take when sorted by rising pIC50? List them. List labels; respect the requested ordering.
## Result 5, 4, 1, 3, 2

P = CCCOCc1cc(NC2(C(=O)O)CCOCC2)ccc1-c1cc(OC)c(C)c(OC)c1F [Compound 334]
Q = COc1cc(-c2c(C)cc(NC3(C(=O)O)CCOCC3)cc2COC2CCCC2)cc(OC)c1C [Compound 141]
## Task Which record would sort first by descending pIC50, P or Q ? Refer to your chosen item by its label in the answer.
## Result Q

A = CCNc1cccc(-c2ccc(NC3(C(=O)O)CCOCC3)cc2COC2CCCC2)c1F [Compound 278]
B = COc1cc(-c2ccc(NC3(C(=O)O)CCOCC3)cc2COC2CCCC2)c(C(F)F)c(OC)c1C [Compound 215]
C = COc1cc(-c2ccc(NC3(C(=O)O)CCOCC3)cc2COC2CCCC2)c(OC)c(OC)c1C [Compound 220]
D = COc1cc(-c2ccc(NC3(C(=O)O)C[C@@H](C)O[C@@H](C)C3)cc2COC2CCCC2)c(F)c(OC)c1C (stereo partly shown) [Compound 225]
## Task Please list these in order of increasing pIC50. Thank you! Use the labels to give the requested order.
## Result D, C, A, B
(D: 6.49, C: 7.09, A: 7.44, B: 7.97)

P = COc1cc(-c2ccc(NC3(C(=O)O)CCOCC3)cc2COC2CCCCC2)c(F)c(OC)c1C [Compound 276]
Q = CCCc1cccc(-c2ccc(NC3(C(=O)O)CCOCC3)cc2COC2CCCC2)c1F [Compound 286]
R = COc1cc(-c2c(C)cc(NC3(C(=O)O)CCOCC3)cc2COC2CCCC2)nc(OC)c1C [Compound 253]
S = CCOc1cccc(-c2ccc(NC3(C(=O)O)CCCC3)cc2COC2CC2)c1C(F)F [Compound 376]
## Task In this exercise, place the 4 molecules in ascending sequence of their recorded pIC50. Answer format: list of labels, ordered as asked.
## Result R, P, Q, S

a = COc1cc(-c2ccc(NC3(C(=O)O)CCOCC3)cc2COC2CCCC2)c(Cl)c(OC)c1C [Compound 166]
b = CCOc1ccnc(-c2ccc(NC3(C(=O)O)CCOCC3)cc2COC2CC2)c1C(F)F [Compound 323]
c = CCOc1nccc(-c2ccc(NC3(C(=O)O)CCOCC3)cc2COC2CC2)c1C(F)F [Compound 338]
d = COc1cc(-c2ccc(NCC(=O)O)cc2COC2Cc3ccccc3C2)cc(OC)c1C [Compound 108]
## Task Given 4 molecules, produce a descending ranking by pIC50. I would appreciate it if you listed the labels in the requested order.
## Result a, c, b, d

P = COc1cc(-c2ccc(OC3(C(=O)O)CCOCC3)cc2COC2CC2)c(F)c(OC)c1C [Compound 343]
Q = CCOc1cccc(-c2ccc(NC3(C(=O)O)CCOCC3)cc2COC2CCCC2)c1F [Compound 245]
R = CCOc1cccc(-c2ccc(NC3(C(=O)O)CCOCC3)cc2COC2CC2)c1Cl [Compound 295]
S = COc1cc(-c2c(COC3CCCC3)cc(NC3(C(=O)O)CCOCC3)cc2C(F)(F)F)cc(OC)c1C [Compound 275]
## Task Rank the items in ascending order with respect to pIC50. To answer, write out the labels according to the requested order.
## Result P, S, Q, R

I = COc1cc(-c2ccc(NC3(C(=O)O)CCC3)cc2COC2Cc3ccccc3C2)cc(OC)c1C [Compound 110]
II = COc1cc(OC2CC2)cc(-c2ccc(OC3(C(=O)O)CCOCC3)cc2COC2CCCC2)c1 [Compound 378]
## Task Please indicate which has the smaller reported pIC50: I , or II . Give the label of your selection.
## Result II

Cited source: patent US11884627B2
